Molecular target: IgE-Tb / FcεRIα-Y131A-AF488 (Homo sapiens, UniProt P01854)
Sequence (P01854 1-427 limits assumed, stated change not applied): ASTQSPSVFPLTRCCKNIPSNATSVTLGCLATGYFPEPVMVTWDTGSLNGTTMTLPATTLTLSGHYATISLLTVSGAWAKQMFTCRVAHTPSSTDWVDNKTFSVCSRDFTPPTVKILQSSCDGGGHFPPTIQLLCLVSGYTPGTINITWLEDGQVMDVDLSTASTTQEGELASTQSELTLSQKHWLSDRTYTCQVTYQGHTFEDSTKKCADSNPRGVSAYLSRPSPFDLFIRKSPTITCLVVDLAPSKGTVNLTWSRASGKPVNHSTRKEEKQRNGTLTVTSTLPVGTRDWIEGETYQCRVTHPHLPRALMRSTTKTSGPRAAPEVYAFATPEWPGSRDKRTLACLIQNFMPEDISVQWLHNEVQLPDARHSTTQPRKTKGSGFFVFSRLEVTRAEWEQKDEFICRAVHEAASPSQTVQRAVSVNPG
Assay: IgE-Tb / FcεRIα-Y131A-AF488 FRET assay (protocol for examples 1 to 233)
Conditions: examples 1 to 233: 5 nM IgE-Tb, 25 nM FcεRIα-Y131A-AF488, incubated 2 hours at room temperature; read-out: Y131A FRET IC50 range
pIC50: −log10 of the molar value.
parameter: pIC50

{"molecule": "CCn1cnnc1NCC1CCc2sc(NC(=O)C3CC3)c(C(=O)NCC3CC3)c2C1 (centres unmarked)", "observed.result": "> 6.00"}
{"molecule": "CCNC(=O)C1CCc2sc(NC(=O)C3CC3)c(S(=O)(=O)NCC(C)C)c2C1 (centres unmarked)", "observed.result": "> 6.00"}
{"molecule": "Nc1cnnn1C1CCc2sc(NC(=O)C3CC3)c(C(=O)NCC3CC3)c2C1 (centres unmarked)", "observed.result": "> 6.00"}
{"molecule": "O=C(NCC1CC1)c1c(NC(=O)C2CC2)sc2c1CC(N1CCOCC1)CC2 (centres unmarked)", "observed.result": "5.00 to 6.00"}
{"molecule": "CC(C)(C)OC(=O)NCCN1CCc2sc(NC(=O)C3CC3)c(C(=O)NCC3CC3)c2C1", "observed.result": "4.30 to 5.00"}
{"molecule": "Cc1cc(Nc2nncn2C2CCc3sc(NC(=O)C4CC4)c(C(=O)NC4CC(F)C4)c3C2)n(C)n1 (centres unmarked)", "observed.result": "> 6.00"}
{"molecule": "CCNc1nnnn1C1CCc2sc(NC(=O)C3CC3)c(C(=O)NCC3CC3)c2C1 (centres unmarked)", "observed.result": "> 6.00"}
{"molecule": "CC(=NC#N)NC1CCc2sc(NC(=O)C3CC3)c(C(=O)NCC3CC3)c2C1 (centres unmarked)", "observed.result": "> 6.00"}
{"molecule": "Cc1cc(Nc2nncn2[C@H]2CCc3sc(NC(=O)C4CC4)c(S(=O)(=O)NCC4CC4)c3C2)n(C)n1", "observed.result": "> 6.00"}
{"molecule": "Cc1cncc(Nc2nncn2C2CCc3sc(NC(=O)C4CC4)c(C(=O)NCC4CC4)c3C2)c1 (stereo in doubt)", "observed.result": "> 6.00"}
{"molecule": "O=C(Nc1sc2c(c1C(=O)N1CC(F)C1)CCCC2)C1CC1", "observed.result": "5.00 to 6.00"}
{"molecule": "O=C1NC(=O)C2(CCc3sc(NC(=O)C4CC4)c(C(=O)NCC4CC4)c3C2)N1 (centres unmarked)", "observed.result": "5.00 to 6.00"}
{"molecule": "CS(=O)(=O)c1cccc(NC(=O)C2CCc3sc(NC(=O)C4CC4)c(S(=O)(=O)NCC4CC4)c3C2)c1 (centres unmarked)", "observed.result": "> 6.00"}
{"molecule": "CCN(C)c1c(NC2CCc3sc(NC(=O)C4CC4)c(C(=O)NCC4CC4)c3C2)c(=O)c1=O (centres unmarked)", "observed.result": "> 6.00"}
{"molecule": "CCNC(=O)C1CCCc2c1sc(NC(=O)C1CC1)c2S(=O)(=O)NCC(C)C (centres unmarked)", "observed.result": "5.00 to 6.00"}
{"molecule": "CC(C)C(=O)Nc1nncn1[C@H]1CCc2sc(NC(=O)C3CC3)c(C(=O)NCC3CC3)c2C1", "observed.result": "> 6.00"}
{"molecule": "O=C(NC1CCc2sc(NC(=O)C3CC3)c(C(=O)NCC3CC3)c2C1)c1ccncc1 (centres unmarked)", "observed.result": "5.00 to 6.00"}

From: patent US12018021B2
